- Assay Text: Thermal decomposition (TGA / DSC)
- Assay type: physicochemical
Can you tell me TGA (decomp.) for the items I'm about to list?
One number for each entry, in °C.

Past entries and their recorded results:
Smiles Representation | TGA (decomp.), °C
COc1ccc(-c2csc(-c3cc[n+](C)cc3)n2)cc1.[I-] | 250
C[n+]1ccc(-c2nc3ccc(Cl)cc3s2)cc1.[I-] | 244
C[n+]1ccc(-c2nc(-c3ccccc3)cs2)cc1.[I-] | 260

// for each compound in input: emit TGA (decomp.)
1. CC(C)[n+]1ccc(-c2nc(-c3ccccc3)cs2)cc1.[I-]
2. COc1ccc(-c2csc(-c3cc[n+](C(C)C)cc3)n2)cc1

(A)
[270, 240]

###

- Assay Text: Solubility in 2,2,3,3-tetrafluoropropanol
- Condition Details: 20 °C, organic solvent or mixture
Readout Type: solubility

Past entries and their recorded results:
Smiles Representation | solubility
C[n+]1ccc(-c2nc(C(C)(C)C)cs2)cc1.[I-] | > 5e-05 mg/mL
C[n+]1ccc(-c2nc(-c3ccccc3)cs2)cc1.[I-] | > 30 mg/mL
COc1ccc(-c2csc(-c3cc[n+](C(C)C)cc3)n2)cc1 | > 50 mg/mL
COc1ccc(-c2csc(-c3cc[n+](C)cc3)n2)cc1.[I-] | > 50 mg/mL
C[n+]1ccc(-c2nc3ccc(Cl)cc3s2)cc1.[I-] | > 50 mg/mL

Consider now this further compound.
(Q) solubility for CC(C)[n+]1ccc(-c2nc(-c3ccccc3)cs2)cc1.[I-] ?
(A) > 50 mg/mL
